Just for reference, patent US5075287A is where these values come from.

- Test system: L-1210 mouse leukemia cells
- test_method_notes: Activation of macrophages (growth inhibition of tumor cells by intraperitoneal macrophages of treated mice, MTT assay)
- Type: cell-based
- applied_conditions: macrophages taken 3 days after i.p. 0.2 ml of 500 μg/ml, macrophage:L-1210 20:1, 72 hours
experimental_readout: Growth inhibitory ratio of L-1210 mouse leukemia cells (%)
Report as a plain number; the unit % is understood.

* CCCCCCCCCCCCCCCCCC(=O)OC[C@H]1O[C@H](OC(=O)C[C@@H](CCCCCCCCCCC)OC(=O)CCCCCCCCCCCCC)[C@H](NC(C)=O)[C@@H](O[C@H](C)C(=O)N[C@@H](C)C(=O)N[C@H](CCC(=O)OC)C(N)=O)[C@@H]1O | 39.7

Exercise: State the recorded Growth inhibitory ratio of L-1210 mouse leukemia cells for this entry: CCCCCCCCCCCCCCCCCC(=O)OC[C@H]1O[C@@H](SC(=O)C[C@@H](CCCCCCCCCCC)OC(=O)CCCCCCCCCCCCC)[C@H](NC(C)=O)[C@@H](O[C@H](C)C(=O)N[C@@H](C)C(=O)N[C@H](CCC(=O)OC)C(N)=O)[C@@H]1O
Solution: 76.3

----------
- Tested on: hepatitis B virus surface antigen (HBs)
- test_method_notes: Hepatitis-vaccine enhancing activity (adjuvant activity): anti-HBs IgG in mouse serum by ELISA
- Type: in vivo, female CDF1 mice
- applied_conditions: Experiment 1; 3 W; 5000-fold dilution
experimental_readout: Anti-HBs IgG antibody level in serum (ELISA absorbance at 415 nm) (O.D 415 nm)
Report as a plain number; the unit O.D 415 nm is understood.

See these solved cases before continuing.
* CCCCCCCCCCCCCCCCCC(=O)OC[C@H]1O[C@@H](SC(=O)C(CCCCCCCCCCCCCC)CCCCCCCCCCCCCC)[C@H](NC(C)=O)[C@@H](O[C@H](C)C(=O)N[C@@H](C)C(=O)N[C@H](CCC(=O)OC)C(N)=O)[C@@H]1O [Example 10] | 0.114
* CCCCCCCCCCCCCCCCCC(=O)OC[C@H]1O[C@H](OC(=O)C(CCCCCCCCCCCCCC)CCCCCCCCCCCCCC)[C@H](NC(C)=O)[C@@H](O[C@H](C)C(=O)N[C@@H](C)C(=O)N[C@H](CCC(=O)OC)C(N)=O)[C@@H]1O [Example 7] | 0.071
* CCCCCCCCCCCCCCC(CCCCCCCCCCCCCC)C(=O)O[C@H]1O[C@H](CO)[C@@H](O)[C@H](O[C@H](C)C(=O)N[C@@H](C)C(=O)N[C@H](CCC(=O)OC)C(N)=O)[C@H]1NC(C)=O [Example 1] | 0.074

Attention now turns to another entry.
Exercise: State the recorded Anti-HBs IgG antibody level in serum (ELISA absorbance at 415 nm) for this entry: CCCCCCCCCCCCCC(=O)OC[C@H]1O[C@@H](SC(=O)C[C@@H](CCCCCCCCCCC)OC(=O)CCCCCCCCCCCCC)[C@H](NC(C)=O)[C@@H](O[C@H](C)C(=O)N[C@@H](C)C(=O)N[C@H](CCC(=O)OC)C(N)=O)[C@@H]1O [Example 15]
Solution: 0.129

----------
Anti HA serum antigen value (average value ± S.D.) reference
- Tested on: influenza HA vaccine (B/Nagasaki/1/87 strain)
- Type: in vivo, female CDF1 mice
- applied_conditions: Experiment 2; 5 W (after secondary stimulation at 3 weeks); 8000-fold dilution

- CCCCCCCCCCCCCCCCCC(=O)OC[C@H]1O[C@@H](SC(=O)C[C@@H](CCCCCCCCCCC)OC(=O)CCCCCCCCCCCCCCCCC)[C@H](NC(C)=O)[C@@H](O[C@H](C)C(=O)N[C@@H](C)C(=O)N[C@H](CCC(=O)O)C(N)=O)[C@@H]1O: 0.791 ± 0.004 O.D 415 nm

Attention now turns to another entry.
Exercise: State the recorded Anti HA serum antigen value (average value ± S.D.) for this entry: CCCCCCCCCCCCCCCCCCCCCCCC(=O)O[C@H](CCCCCCCCCCC)CC(=O)S[C@@H]1O[C@H](CO)[C@@H](O)[C@H](O[C@H](C)C(=O)N[C@@H](C)C(=O)N[C@H](CCC(=O)OC)C(N)=O)[C@H]1NC(C)=O
Solution: 0.805 ± 0.008 O.D 415 nm
